Entry source: paper PMC6220817

- TEST SYSTEM: tubulin (α‐ and β‐tubulin dimer) (porcine (purified from porcine brain)) (UniProt P02550)
- Sequence (P02550 whole entry, chain 1 of 2): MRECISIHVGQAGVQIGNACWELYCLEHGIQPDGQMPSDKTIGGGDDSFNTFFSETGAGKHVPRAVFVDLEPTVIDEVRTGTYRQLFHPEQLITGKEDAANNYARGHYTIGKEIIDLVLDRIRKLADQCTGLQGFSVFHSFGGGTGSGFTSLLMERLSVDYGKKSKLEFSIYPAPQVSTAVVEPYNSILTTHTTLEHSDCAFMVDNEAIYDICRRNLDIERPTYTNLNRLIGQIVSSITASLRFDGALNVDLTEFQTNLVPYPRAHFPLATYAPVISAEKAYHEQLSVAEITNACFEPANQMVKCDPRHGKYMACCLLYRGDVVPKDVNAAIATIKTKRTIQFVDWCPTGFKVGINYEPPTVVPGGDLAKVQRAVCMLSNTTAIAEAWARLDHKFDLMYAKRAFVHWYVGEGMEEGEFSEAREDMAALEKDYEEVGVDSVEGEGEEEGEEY
- Sequence (P02554 whole entry, chain 2 of 2, further chain): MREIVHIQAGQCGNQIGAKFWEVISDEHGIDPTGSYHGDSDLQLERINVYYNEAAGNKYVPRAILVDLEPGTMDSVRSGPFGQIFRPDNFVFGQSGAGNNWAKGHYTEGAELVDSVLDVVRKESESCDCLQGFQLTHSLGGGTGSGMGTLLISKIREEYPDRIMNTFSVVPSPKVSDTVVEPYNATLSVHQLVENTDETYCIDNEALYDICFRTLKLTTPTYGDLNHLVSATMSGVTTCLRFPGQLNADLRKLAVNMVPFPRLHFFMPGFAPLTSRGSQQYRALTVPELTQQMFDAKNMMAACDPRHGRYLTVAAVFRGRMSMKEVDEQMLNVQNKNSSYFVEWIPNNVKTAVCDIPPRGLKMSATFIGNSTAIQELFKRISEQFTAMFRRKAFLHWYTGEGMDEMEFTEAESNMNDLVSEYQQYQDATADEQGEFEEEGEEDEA
- METHOD SUMMARY: equilibrium dialysis
Ends that are not written are not given here. TMR‑5‑maleimide = tetramethylrhodamine-5-maleimide
So I've got a bunch of binders here, and I need their pKd values.
Value format note: pKd is -log10 of concentration (mol/L); just state the number.

Entry C(TMR‑5‑maleimide)GGGKHQPGGGKVQIINKKLDL [1N‐TMR] — recorded pKd = 5.47

Entry KHQPGGGKVQIINKKLDLGGGC(TMR‑5‑maleimide) [1C‐TMR] — recorded pKd = 4.78
